Data provenance is ChEMBL document CHEMBL6177968.

- protocolNotes: Cytotoxicity in CHO-K1 cells
- Type: toxicity, cell-based, Cricetulus griseus
- setupConditions: Chinese hamster
pIC50: −log10 of the molar value.
Exercise: state measured pIC50 for each of the compounds provided.

Item under review: Nc1cc(F)c(S(=O)(=O)N[C@H]2CNC2=O)cc1C(=O)Nc1ccc(F)c(C(F)F)c1 . Reported pIC50?
< 4.00

API: the following record is the query input.
Can you look up the measured pIC50 of Nc1cc(F)c(S(=O)(=O)NC2COC2)cc1C(=O)Nc1ccc(F)c(C(F)F)c1 for me?
< 4.00

###

- assayedSystem: Cytochrome P450 3A4 (Homo sapiens, UniProt P08684)
- Sequence (P08684 whole entry): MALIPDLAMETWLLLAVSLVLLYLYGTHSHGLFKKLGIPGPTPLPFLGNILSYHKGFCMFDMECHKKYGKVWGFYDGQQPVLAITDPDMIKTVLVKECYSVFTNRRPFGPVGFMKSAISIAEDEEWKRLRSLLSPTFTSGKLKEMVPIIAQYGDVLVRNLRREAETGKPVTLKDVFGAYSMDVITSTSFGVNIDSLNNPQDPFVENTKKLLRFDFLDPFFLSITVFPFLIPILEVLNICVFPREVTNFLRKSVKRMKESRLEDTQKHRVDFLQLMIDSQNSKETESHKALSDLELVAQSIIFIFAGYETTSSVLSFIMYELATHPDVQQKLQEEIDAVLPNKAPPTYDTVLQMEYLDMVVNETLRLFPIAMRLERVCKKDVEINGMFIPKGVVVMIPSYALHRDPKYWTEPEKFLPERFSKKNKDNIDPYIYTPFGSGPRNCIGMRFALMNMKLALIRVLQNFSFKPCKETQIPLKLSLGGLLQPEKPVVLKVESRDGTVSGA
resultType: IC50 (µM)
Give bare numbers, in µM.

# query: IC50 of entry Nc1cc(F)c(S(=O)(=O)N[C@H]2CNC2=O)cc1C(=O)Nc1ccc(F)c(C(F)F)c1
26.1

###

Please respond with reported selectivity ratio for every item in the list.
- protocolNotes: Selectivity index, ratio of CC50 for cytotoxicity in human HepG2.2.15 cells assessed as reduction in cell viability to EC50 for antiviral activity against HBV in human HepG2.2.15 cells assessed as reduction in viral replication
- Type: toxicity, cell-based
- setupConditions: read-out: Ratio CC50/EC50

These recorded examples may help you get a feel for the data.
Please look up its selectivity ratio: Nc1cc(F)c(S(=O)(=O)N2CC3(COC3)C2)cc1C(=O)Nc1ccc(F)c(F)c1
386

One more compound: Nc1cc(F)c(S(=O)(=O)N2CC3COCC3C2)cc1C(=O)Nc1ccc(F)c(C(F)F)c1 (centres undefined)
> 9330

Same question, Nc1cc(F)c(S(=O)(=O)N[C@@H]2CCOC2=O)cc1C(=O)Nc1ccc(F)c(C(F)F)c1 this time
147

Now consider the entry below.
Which value of selectivity ratio has been reported for C[C@H](CO)NS(=O)(=O)c1cc(C(=O)Nc2ccc(F)c(F)c2)c(N)cc1F in the records?
296
